Cited source: paper PMC3086806

assay.target: TbCatB (Trypanosoma brucei, UniProt Q6R7Z5)
Sequence (Q6R7Z5 23-340): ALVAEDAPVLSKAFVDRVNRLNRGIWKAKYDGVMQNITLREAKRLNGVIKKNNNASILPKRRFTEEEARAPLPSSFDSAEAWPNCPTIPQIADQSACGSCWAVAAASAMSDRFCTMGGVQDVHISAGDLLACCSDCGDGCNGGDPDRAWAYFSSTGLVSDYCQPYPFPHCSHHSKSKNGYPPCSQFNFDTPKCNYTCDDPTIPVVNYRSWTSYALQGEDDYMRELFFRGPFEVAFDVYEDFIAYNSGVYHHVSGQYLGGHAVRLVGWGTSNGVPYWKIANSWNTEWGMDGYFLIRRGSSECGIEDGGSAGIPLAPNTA
pIC50: −log10 of the molar value.
Threshold check on pIC50: at or above 7 gives class 1, strictly below gives class 0.

Here are 3 molecules together with their reported answers.
molecule: CCCCC(NC(=O)C(Cc1ccccc1)NC(=O)N1CCOCC1)C(=O)c1nc2ccccc2o1 (centres unmarked) [Compound 19b]
cat: class 0

molecule: CCCCC(NC(=O)C(CCC)NC(c1ccc(-c2ccc(S(C)(=O)=O)cc2)cc1)C(F)(F)F)C(=O)c1nnc(-c2ccco2)o1 (centres unmarked)
cat: class 1

molecule: CCCCC(NC(=O)C(CC(C)C)NC(=O)N1CCOCC1)C(=O)c1nc2ccccc2o1 (centres unmarked) [Compound 19a]
cat: class 0

Here is another molecule to look at.
Task: Dear colleague, could you confirm whether CCCC[C@H](NC(=O)C1(NC(=O)c2ccc(-c3csc(N4CCN(C)CC4)n3)cc2)CCCCC1)C(=O)c1nc2ccccc2o1 [Compound 23b] has pIC50 at or above 7?
Result: class 1
